tested on: NCI-H460; experiment: Cytotoxicity against human NCI-H460 cells incubated for 72 hrs by MTT assay; type: functional, cell-based; settings: Homo sapiens, NCI-H460, 72 h; read-out: IC50
readout: pIC50
Please keep in mind that pIC50 is minus log10 of the molar concentration; only the number is needed.

Would you please look over these solved cases?
[
  {
    "compound": "O=C(O)C1=C[C@@H](O)[C@@H]2C[C@H]3[C@H](CCC/C=C\\C=C\\c4ccccc4)[C@H]4C=C[C@@H]1[C@@H]2[C@H]43 [BEILSCHMIEDIC ACID M]",
    "pIC50": 5.06
  },
  {
    "compound": "O=C(O)C1=C[C@@H](O)[C@@H]2C[C@H]3[C@H](CCCCCc4ccccc4)[C@H]4C=C[C@@H]1[C@@H]2[C@H]43 [BEILSCHMIEDIC ACID K]",
    "pIC50": 5.23
  },
  {
    "compound": "CC[C@@]1(O)C(=O)OCc2c1cc1n(c2=O)Cc2cc3ccccc3nc2-1 [CAMPTOTHECIN]",
    "pIC50": 8.52
  }
]

From here, focus on the item given below.
// field: pIC50; key: O=C(O)C1=C[C@@H](O)[C@@H]2C[C@H]3[C@H](C/C=C/C=C/c4ccccc4)[C@H]4C=C[C@@H]1[C@@H]2[C@H]43 [BEILSCHMIEDIC ACID L] ; value = 5.36

====

test system: NCI-H460; assay: Cytotoxicity against human NCI-H460 cells incubated for 72 hrs by MTT assay; assay type: functional, cell-based; conditions: Homo sapiens, NCI-H460, 72 h; read-out: IC50
Below, each entry is listed with its recorded pIC50.
Please treat pIC50 as minus the base-10 logarithm of the molar concentration.

Examples with answers:
[
  {
    "compound": "CCCCCCCC[C@@H]1[C@H]2C=C[C@H]3C(C(=O)O)=C[C@H](O)[C@@H]4C[C@@H]1[C@@H]2[C@H]43",
    "targetOrSystem": "NCI-H460",
    "observedResult": 5.21
  },
  {
    "compound": "O=C(O)C1=C[C@H](O)[C@@H]2C[C@H]3[C@H](CCC/C=C/C=C/c4ccccc4)[C@H]4C=C[C@@H]1[C@@H]2[C@H]43",
    "targetOrSystem": "NCI-H460",
    "observedResult": 5.26
  }
]

Given the compound O=C(O)C1=C[C@@H](O)[C@@H]2C[C@H]3[C@H](CCCC4C=CC(c5ccccc5)OO4)[C@H]4C=C[C@@H]1[C@@H]2[C@H]43 (stereo partly drawn) and test system NCI-H460, the measured pIC50 is 4.72
